- Tested on: RPMI-8226 leukemia
- Assay details: NCI-60 one-dose screen, 48 h
- Test parameters: 10 µM unless noted
- Description: Growth inhibition of the RPMI-8226 human tumor cell line is measured as a screen for anti-cancer activity. Cells are grown in 96 well plates and exposed to the test compound for 48 hours. Compounds are tested at a single concentration, which is 10^-5 M for most compounds. The reported endpoint is percent growth (GI% or GIPRCNT), where numbers from 0 - 100% represent growth inhibition, and numbers from -100% - 0 represent cell death. For example, a value of 40 represents 60% growth inhibition. […]
The panel holds about 83,000 compounds, 20% with a hit somewhere; the sample as a whole holds those more often. The source made the active and inactive calls. Rule for the calls: active = growth percent below 10; inactive = the rest.
Output constraint: value belongs to active, inactive

Some entries whose results are on file:
COC(=O)/C=C1\S/C(=N\NC(=O)c2cc3ccc2/C=C\c2ccc(cc2)/C=C\3)N(Cc2ccccc2)C1=O = active
COc1cc2nc(-c3ccc(C(F)(F)F)cc3)cc(OCCCN3CCOCC3)c2cc1OC = inactive
O=C(CCN1CCCC1)c1ccc([N+](=O)[O-])cc1 = inactive

Per the records of this test, what outcome belongs to `Cc1cc2cc3ccc(N(C)C)cc3nc2cc1N` ?
active

Per the records of this test, what outcome belongs to `C=C1C(=O)O[C@H]2[C@H]1CC/C(COC(=O)NCc1c[nH]c3ccc(Br)cc13)=C\CC[C@@]1(C)O[C@@H]21` ?
active

Per the records of this test, what outcome belongs to `Cc1cc(Cl)nc(N(CCNc2ccnc3cc(Cl)ccc23)Cc2ccccn2)n1` ?
inactive

Per the records of this test, what outcome belongs to `CCCOc1ccc(/C=N/Nc2cc(C)nc3ccc(Cl)cc23)cc1` ?
active

Per the records of this test, what outcome belongs to `CC(=O)c1ccc(NS(=O)(=O)c2cccc(C(=O)Nc3ccc(Br)cc3)c2)cc1` ?
inactive
